- Test system: 233499-124-R-J3-PDC complex spheroid viability, % test/control;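 also: spheroids exposed to agents for one week before readout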
- experimentDescription: Anticancer human tumor 233499-124-R-J3-PDC patient-derived colon adenocarcinoma cell line growth inhibition
- experimentalSetup: second compound 3.16 µM; first compound 0.0949 µM; hits give low values
propertyLabel: viability, T/C (%)
Give bare numbers, in %.

Take a look at these entries with their results.
In: What reported viability, T/C corresponds to O=C(C=Cc1cccc(S(=O)(=O)Nc2ccccc2)c1)NO + NC1CC1c1ccc(-c2cccc(O)c2)cc1 on 233499-124-R-J3-PDC complex spheroid viability, % test/control?
Out: 93.8

In: What reported viability, T/C corresponds to O=C(C=Cc1cccc(S(=O)(=O)Nc2ccccc2)c1)NO + NC1CCC(NC2CC2c2ccccc2)CC1 on 233499-124-R-J3-PDC complex spheroid viability, % test/control?
Out: 102

In: What reported viability, T/C corresponds to NS(=O)(=O)OCC1CC(n2ccc3c(NC4CCc5ccccc54)ncnc32)CC1O (stereo not drawn) + NC1CC1c1ccc(-c2cccc(O)c2)cc1 on 233499-124-R-J3-PDC complex spheroid viability, % test/control?
Out: 29.9

State the recorded viability, T/C for every item in the following list.
1. Nc1ccn(C2OC(CO)C(O)C2(F)F)c(=O)n1 (stereo not drawn) + NC1CC1c1ccc(-c2cccc(O)c2)cc1
2. Nc1ncn(C2CC(O)C(CO)S2)c(=O)n1 (stereo not drawn) + NC1CCC(NC2CC2c2ccccc2)CC1
3. Nc1ccccc1NC(=O)c1ccc(CNC(=O)OCc2cccnc2)cc1 + NC1CCC(NC2CC2c2ccccc2)CC1
4. Nc1ccn(C2OC(CO)C(O)C2(F)F)c(=O)n1 (stereo not drawn) + NC1CCC(NC2CC2c2ccccc2)CC1
5. NS(=O)(=O)OCC1CC(n2ccc3c(NC4CCc5ccccc54)ncnc32)CC1O (stereo not drawn) + NC1CCC(NC2CC2c2ccccc2)CC1
6. Nc1ccccc1NC(=O)c1ccc(CNC(=O)OCc2cccnc2)cc1 + NC1CC1c1ccc(-c2cccc(O)c2)cc1
7. CCN(c1cc(-c2ccc(CN3CCOCC3)cc2)cc(C(=O)NCc2c(C)cc(C)[nH]c2=O)c1C)C1CCOCC1 + NC1CCC(NC2CC2c2ccccc2)CC1
8. Nc1ncn(C2CC(O)C(CO)S2)c(=O)n1 (stereo not drawn) + NC1CC1c1ccc(-c2cccc(O)c2)cc1

Out:
1: 39.1; 2: 39.2; 3: 76.7; 4: 18.9; 5: 34.5; 6: 79.8; 7: 85.8; 8: 58.4

State the recorded viability, T/C for every item in the following list.
1. CCN(c1cc(-c2ccc(CN3CCOCC3)cc2)cc(C(=O)NCc2c(C)cc(C)[nH]c2=O)c1C)C1CCOCC1 + NC1CC1c1ccc(-c2cccc(O)c2)cc1
2. CCc1c2c(nc3ccc(O)cc13)-c1cc3c(c(=O)n1C2)COC(=O)[C@]3(O)CC + NC1CCC(NC2CC2c2ccccc2)CC1

Out:
1. 90.5
2. 28.5

Origin of the recorded values: PubChem BioAssay AID1918930
